# EXPERIMENTAL_SYSTEM: T1, murine mesothelin (recombinant) (murine, UniProt Q61468 298-600, limits assumed)
# T1 construct: Covalently immobilized on the Biacore chip
# T1 sequence (looked up): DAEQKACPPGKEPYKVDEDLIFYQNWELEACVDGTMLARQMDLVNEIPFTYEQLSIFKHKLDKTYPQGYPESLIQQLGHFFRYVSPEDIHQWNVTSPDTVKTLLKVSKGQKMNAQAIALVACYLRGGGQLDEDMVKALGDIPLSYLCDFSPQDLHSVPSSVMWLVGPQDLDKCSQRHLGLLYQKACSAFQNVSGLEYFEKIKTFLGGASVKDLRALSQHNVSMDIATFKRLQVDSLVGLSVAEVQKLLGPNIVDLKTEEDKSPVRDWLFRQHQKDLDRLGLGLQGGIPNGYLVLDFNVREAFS
# MEASUREMENT_PROTOCOL: SPR (Biacore 3000), Fab on covalently immobilized murine mesothelin
Attribute: Kd
MEASUREMENT_NAME: Kd (nM)

[
  {
    "BINDER": "MOR06657 Fab (Fab, V domains shown, Purified Fab) VH: QVQLVQSGAEVKKPGSSVKVSCKASGGTFSSYYFSWVRQAPGQGLEWMGGIIPKFGSANYAQKFQGRVTITADESTSTAYMELSSLRSEDTAVYYCARRTSMDYWGQGTLVTVSS VL: DIALTQPASVSGSPGQSITISCTGTSSDVGGYNYVSWYQQHPGKAPKLMIYSVSKRPSGVSNRFSGSKSGNTASLTISGLQAEDEADYYCATWDHSQMGKVFGGGTKLTVLG",
    "MEASUREMENT_NAME": "Kd",
    "VAL": 360
  },
  {
    "BINDER": "MOR06638 Fab (Fab, V domains shown, Purified Fab) VH: QVQLVQSGAEVKKPGASVKVSCKASGYTFTGNYINWVRQAPGQGLEWMGIINPHGGDTKYAQKFQGRVTMTRDTSISTAYMELSSLRSEDTAVYYCARWHHGTWIFDYWGQGTLVTVSS VL: DIVLTQPPSVSGAPGQRVTISCSGSSSNIGSNYVSWYQQLPGTAPKLLIYNDNQRPSGVPDRFSGSKSGTSASLAITGLQSEDEADYYCSSWDRADGSYVFGGGTKLTVLG",
    "MEASUREMENT_NAME": "Kd",
    "VAL": 320
  },
  {
    "BINDER": "MF-226 Fab (Fab, V domains shown, Purified Fab) VH: QVELVQSGAEVKKPGASVKVSCKASGYTFTGNYINWVRQAPGQGLEWMGIINPHGGDTKYAQKFQGRVTMTRDTSISTAYMELSSLRSEDTAVYYCARWHHGTWIFDYWGQGTLVTVSS VL: DIVLTQPPSVSGAPGQRVTISCSGSSSNIGSNYVSWYQQLPGTAPKLLIYNDNQRPSGVPDRFSGSKSGTSASLAITGLQSEDEADYYCSTYDRRTFSVFGGGTKLTVLG",
    "MEASUREMENT_NAME": "Kd",
    "VAL": 1280
  },
  {
    "BINDER": "MOR06626 Fab (Fab, V domains shown, Purified Fab) VH: QVQLVQSGAEVKKPGASVKVSCKASGYTFTGNYINWVRQAPGQGLEWMGIINPTKGWTLYAQKFQGRVTMTRDTSISTAYMELSSLRSEDTAVYYCARWHHGTWIFDYWGQGTLVTVSS VL: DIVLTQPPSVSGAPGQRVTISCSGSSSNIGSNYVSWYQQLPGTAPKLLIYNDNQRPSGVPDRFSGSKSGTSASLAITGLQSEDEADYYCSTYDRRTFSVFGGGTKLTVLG",
    "MEASUREMENT_NAME": "Kd",
    "VAL": 6.7
  },
  {
    "BINDER": "MF-A Fab (Fab, V domains shown, Purified Fab) VH: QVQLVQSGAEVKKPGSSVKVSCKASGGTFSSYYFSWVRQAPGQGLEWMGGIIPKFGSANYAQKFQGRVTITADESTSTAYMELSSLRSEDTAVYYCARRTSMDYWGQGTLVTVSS VL: DIALTQPASVSGSPGQSITISCTGTSSDVGGYNYVSWYQQHPGKAPKLMIYSVSKRPSGVSNRFSGSKSGNTASLTISGLQAEDEADYYCGAWAHMSLGKVFGGGTKLTVLG",
    "MEASUREMENT_NAME": "Kd",
    "VAL": 670
  }
]

Values compiled from patent US20180258181A1.
